Can you tell me AUC(0-t) for the items I'm about to list?
# Assay text: Pharmacokinetics in mice
# Format: in vivo, CD-1 Mice
# Run conditions: mouse, plasma; Female CD-1 Mice, PO, 10 mg/kg, 0.5% MC; 0.25% Tween 80; read-out: AUC 0-24 hr
Give bare numbers, in ng·h/mL.

>>> df
                            chemical_smiles  endpoint  meas_value
0  CN[C@H]1COc2c(S(=O)(=O)NC(=O)Nc3c4c(cc5c3CCC5)CCC4)cnn2C1  AUC(0-t)       23500

Exercise: Indicate its recorded AUC(0-t); the compound in question is `COC1CN([C@H]2COc3c(S(=O)(=O)NC(=O)Nc4c5c(cc6c4CCC6)CCC5)cnn3C2)C1`
Key: 8270
